target: Human recombinant MMP-1 (Homo sapiens, UniProt P03956); construct: made in house; host or cells: MMP-1-transfected HT-1080 cells (spent media); experiment: In vitro MMP inhibition, IC50 determination (fluorogenic substrate I); type: biochemical; settings: value outside parenthesis
Sequence (P03956 100-469): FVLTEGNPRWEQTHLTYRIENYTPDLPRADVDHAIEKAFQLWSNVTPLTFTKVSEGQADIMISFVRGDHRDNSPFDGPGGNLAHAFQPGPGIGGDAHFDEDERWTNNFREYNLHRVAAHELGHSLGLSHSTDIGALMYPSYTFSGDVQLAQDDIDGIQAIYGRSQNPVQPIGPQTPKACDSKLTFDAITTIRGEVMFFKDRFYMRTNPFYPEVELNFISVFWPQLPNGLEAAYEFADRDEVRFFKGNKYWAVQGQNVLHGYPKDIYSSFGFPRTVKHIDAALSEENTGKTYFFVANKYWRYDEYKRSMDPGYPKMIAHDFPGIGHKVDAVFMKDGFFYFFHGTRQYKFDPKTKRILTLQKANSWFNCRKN
pIC50: −log10 of the molar value.
measurementLabel: pIC50

Solved entries:
compound="Cc1ccccc1N1CC(=O)N(CCCOc2ccc(S(=O)(=O)C3(C(=O)NO)CCOCC3)cc2)C1=O [Example 226]" experimentalresult="< 5.00"
compound="O=C1CN(c2ccc(OC(F)(F)F)cc2)C(=O)N1CCCOc1ccc(S(=O)(=O)C2(C(=O)NO)CCOCC2)cc1 [Example 144]" experimentalresult="< 5.00"
compound="O=C(NO)C1(S(=O)(=O)c2ccc(OCCCSc3nc4cc(Cl)ccc4s3)cc2)CCOCC1 [Example 284]" experimentalresult="< 5.00"
compound="Cc1cccc(-c2nnc(CCCOc3ccc(S(=O)(=O)C4(C(=O)NO)CCOCC4)cc3)o2)c1 [Example 258]" experimentalresult="< 5.00"
compound="O=C(NO)C1(S(=O)(=O)c2ccc(OCCCc3nc(-c4ccccc4)no3)cc2)CCOCC1 [Example 241]" experimentalresult="< 5.00"
compound="COc1ccc(CCCCc2ccc(S(=O)(=O)C3(C(=O)NO)CCOCC3)cc2)cc1 [Example 256]" experimentalresult="< 5.00"
compound="O=C(CCCOc1ccc(S(=O)(=O)C2(C(=O)NO)CCOCC2)cc1)Nc1ccc(OC(F)(F)F)cc1 [Example 228]" experimentalresult=5.16
compound="O=C(NO)C1(S(=O)(=O)c2ccc(OCCCc3nc(-c4ccc(F)cc4)no3)cc2)CCOCC1 [Example 240]" experimentalresult="< 5.00"
compound="Cc1ccc(/C(C#N)=C/CCCOc2ccc(S(=O)(=O)C3(C(=O)NO)CCN(C4CC4)CC3)cc2)cc1C [Example 201]" experimentalresult="< 5.00"
compound="Cc1cc(-c2cccc(CCOc3ccc(S(=O)(=O)C4(C(=O)NO)CCOCC4)cc3)c2)ccc1F [Example 120]" experimentalresult="< 5.00"

Now for another entry.
Query: For the compound COc1ccc2sc(SCCOc3ccc(S(=O)(=O)C4(C(=O)NO)CCOCC4)cc3)nc2c1 [Example 282] , report pIC50.
Result: < 5.00

###

Target: Human recombinant MMP-2 (Homo sapiens)
Construct: made in house; host or cells: MMP-2-transfected p2AHT2 cells
Sequence (P08253 110-660): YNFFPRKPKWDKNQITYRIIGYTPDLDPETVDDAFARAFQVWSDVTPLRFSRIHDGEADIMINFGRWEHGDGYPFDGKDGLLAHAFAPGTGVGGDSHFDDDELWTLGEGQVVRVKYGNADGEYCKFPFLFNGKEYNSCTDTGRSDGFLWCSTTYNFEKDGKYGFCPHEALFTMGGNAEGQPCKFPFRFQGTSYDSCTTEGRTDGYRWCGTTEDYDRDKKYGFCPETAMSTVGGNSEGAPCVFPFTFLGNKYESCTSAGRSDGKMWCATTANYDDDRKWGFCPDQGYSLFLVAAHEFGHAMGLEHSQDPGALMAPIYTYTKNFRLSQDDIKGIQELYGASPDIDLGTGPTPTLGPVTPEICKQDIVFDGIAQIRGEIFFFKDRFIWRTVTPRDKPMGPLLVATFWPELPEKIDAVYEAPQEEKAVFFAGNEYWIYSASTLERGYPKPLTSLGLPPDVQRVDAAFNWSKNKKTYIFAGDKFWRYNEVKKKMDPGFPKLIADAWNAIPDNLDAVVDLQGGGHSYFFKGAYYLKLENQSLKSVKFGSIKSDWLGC
Experiment: In vitro MMP inhibition, IC50 determination (fluorogenic substrate I)
Type: biochemical
Conditions: value outside parenthesis
pIC50: −log10 of the molar value.
measurementLabel: pIC50

(a) O=C(NO)C1(S(=O)(=O)c2ccc(OCCSc3nc4cc(Cl)ccc4s3)cc2)CCOCC1 [Example 281]
(b) COCCN1CCC(C(=O)NO)(S(=O)(=O)c2ccc(OCCCCC(=O)c3ccc(OC)cc3)cc2)CC1 [Example 245]
Query: When a and b are compared, which has the higher number for pIC50? # answer = label of selected item
Result: b
(b: 8.07, a: 7.15)

(I) CCOc1ccc(-c2nnn(CCCOc3ccc(S(=O)(=O)C4(C(=O)NO)CCN(CCOC)CC4)cc3)n2)cc1 [Example 156]
(II) O=C(CCCOc1ccc(S(=O)(=O)C2(C(=O)NO)CCOCC2)cc1)Nc1ccc(OC(F)(F)F)cc1 [Example 228]
Query: Please indicate which entry, I or II , has the lower recorded pIC50 value. # answer = label of selected item
Result: I

(1) Cc1ccccc1-c1cccc(CCOc2ccc(S(=O)(=O)C3(C(=O)NO)CCOCC3)cc2)c1 [Example 116]
(2) COCCN1CCC(C(=O)NO)(S(=O)(=O)c2ccc(OCCCc3nc(-c4ccc(Br)cc4C)no3)cc2)CC1 [Example 135]
Query: When 1 and 2 are compared, which has the higher number for pIC50? # answer = label of selected item
Result: 2

(a) Cc1cc(C)nc(SCCCOc2ccc(S(=O)(=O)C3(C(=O)NO)CCOCC3)cc2)n1 [Example 286]
(b) CC(C)Oc1ccc(-c2nnc(CCCOc3ccc(S(=O)(=O)C4(C(=O)NO)CCOCC4)cc3)o2)cc1 [Example 209]
Query: When a and b are compared, which has the higher number for pIC50? # answer = label of selected item
Result: a

###

target: Human recombinant MMP-13 (Homo sapiens, UniProt P45452); construct: made in house; host or cells: baculovirus / insect cells; assay: In vitro MMP inhibition, IC50 determination (fluorogenic substrate I); format: biochemical; details: value outside parentheses (Ki in parenthesis)
pIC50: −log10 of the molar value.
measurementLabel: pIC50

molecule="CC(C)=CC1C(COc2ccc(S(=O)(=O)C3(C(=O)NO)CCOCC3)cc2)C1(C)C (stereo not drawn) [Example 471]" experimentalresult=6.92
molecule="CON(C)C(=O)CCCCOc1ccc(S(=O)(=O)C2(C(=O)NO)CCOCC2)cc1 [Example 329]" experimentalresult=8.07
molecule="CN(C)c1ccc(/C=C/CCCOc2ccc(S(=O)(=O)C3(C(=O)NO)CCOCC3)cc2)cc1 [Example 486]" experimentalresult=8.34
molecule="CN(C)c1ccc(NC(=O)CCCOc2ccc(S(=O)(=O)C3(C(=O)NO)CCOCC3)cc2)cc1 [Example 357]" experimentalresult=8.77
molecule="CCCC(=O)C(C)CCOc1ccc(S(=O)(=O)C2(C(=O)NO)CCOCC2)cc1 (stereo not drawn) [Example 295]" experimentalresult=8.59
molecule="CN(C)c1ccc(C(=O)CCCOc2ccc(S(=O)(=O)C3(C(=O)NO)CCOCC3)cc2)cc1 [Example 490]" experimentalresult=9.70
molecule="O=C1c2cc3ccccc3cc2C(=O)N1CCCOc1ccc(S(=O)(=O)C2(C(=O)NO)CCOCC2)cc1 [Example 343]" experimentalresult=8.62
molecule="O=C(NO)C1(S(=O)(=O)c2ccc(OCCCCN3CCc4ccccc4C3)cc2)CCOCC1 [Example 334]" experimentalresult=8.29
molecule="COc1ccc(S(=O)(=O)C[C@H](C)COc2ccc(S(=O)(=O)C3(C(=O)NO)CCOCC3)cc2)cc1 [Example 433]" experimentalresult=8.15
molecule="CC(C)(C)c1ccc(C(=O)NCCCOc2ccc(S(=O)(=O)C3(C(=O)NO)CCOCC3)cc2)cc1 [Example 374]" experimentalresult=8.10

(I) O=C(NO)C1(S(=O)(=O)c2ccc(OCCCOc3ccc4ccccc4c3)cc2)CCOCC1 [Example 448]
(II) COc1ccc(C(=CCCCOc2ccc(S(=O)(=O)C3(C(=O)NO)CCOCC3)cc2)c2ccc(OC)cc2)cc1 [Example 349]
(III) COc1cc2c(cc1OC)CN(CCCCOc1ccc(S(=O)(=O)C3(C(=O)NO)CCOCC3)cc1)CC2 [Example 338]
(IV) O=C(CCCCOc1ccc(S(=O)(=O)C2(C(=O)NO)CCOCC2)cc1)c1ccccc1 [Example 326]
Query: Exam item: list the entries in increasing order of pIC50. Response format: the labels, sorted as the prompt asks.
Result: III, II, I, IV
(III: 6.86, II: 7.41, I: 8.57, IV: 9.52)

###

Target: Human recombinant MMP-1 (Homo sapiens, UniProt P03956)
Construct: made in house; host or cells: MMP-1-transfected HT-1080 cells (spent media)
Experiment: In vitro MMP inhibition, Ki determination (fluorogenic substrate II)
Format: biochemical
Conditions: value in parentheses
Method: Several hydroxamates and salts thereof were analyzed in in vitro assays to determine their ability to inhibit the MMP cleavage of peptide substrates. Inhibition (Ki) and IC50 constants were calculated from the assayed hydroxamate-MMP interactions. […] The assays from which the Ki determinations were made were performed as follows. […] In the absence of MMP inhibitory activity, substrate II was cleaved at the Gly-Leu bond resulting in an increase of relative fluorescence. […]
Catalogue of Ki values

Solved entries:
substancesmiles=O=C(NO)C1(S(=O)(=O)c2ccc(OCCCc3cc(-c4ccc(OC(F)(F)F)cc4)cs3)cc2)CCOCC1 measurementlabel=Ki experimentalresult="> 10 µM"
substancesmiles=O=C(NO)C1(S(=O)(=O)c2ccc(OCCCc3cccc(-c4cccc(O)c4)c3)cc2)CCOCC1 measurementlabel=Ki experimentalresult="> 10 µM"
substancesmiles=O=C(NO)C1(S(=O)(=O)c2ccc(OCCCc3nc(-c4cccnc4)no3)cc2)CCOCC1 measurementlabel=Ki experimentalresult="> 10 µM"
substancesmiles=CCC(=O)c1cccc(CCCOc2ccc(S(=O)(=O)C3(C(=O)NO)CCOCC3)cc2)c1 measurementlabel=Ki experimentalresult="> 10 µM"
substancesmiles=O=C(NCCOc1ccc(S(=O)(=O)C2(C(=O)NO)CCOCC2)cc1)c1cc2ccccc2[nH]1 measurementlabel=Ki experimentalresult="> 10 µM"

Query: For the compound `Cc1ccc(NC(=O)CCCOc2ccc(S(=O)(=O)C3(C(=O)NO)CCOCC3)cc2)cc1I` , report Ki.
Result: 5.1 µM

Query: For the compound `COCCN1CCC(C(=O)NO)(S(=O)(=O)c2ccc(OCCCc3cncc(-c4ccccc4)c3)cc2)CC1` , report Ki.
Result: 4.85 µM

Query: For the compound `O=C(NO)C1(S(=O)(=O)c2ccc(OCCCc3cccc(-c4ccc5ccccc5c4)c3)cc2)CCOCC1` , report Ki.
Result: > 10 µM
